Values from patent US20230293526A1

# System: SNU-1
# TEST PROTOCOL: Cell proliferation CellTiterGlo Ex.2
# Assay type: cell-based
# COND: Homo sapiens, SNU1; SNU-1 (Stomach), 72 h
PROPERTY: IC50 (nM)
Hi! Could you send only the number? It should be in nM, unit omitted.

Ask: Form field: IC50 recorded for C#C[C@]1(CO)O[C@@H](n2cnc3c(=O)[nH]c(N)nc32)C[C@@H]1O with SNU-1 (enter value)
Result: 2890

---

# Test system: cancer cell lines
# TEST PROTOCOL: Cancer cell proliferation activity of representative nucleosides, CellTiterGlo 72 h (Example 7, Tables 8 and 9)
# Type: cell-based
# COND: Homo sapiens, OVCAR-4, 72 h, OVCAR4, ovary, 72 h
pIC50: −log10 of the molar value.
PROPERTY: pIC50

[
  {
    "SMILES": "N#C[C@]1(CO)O[C@@H](n2ccc(N)nc2=O)C[C@@H]1O",
    "pIC50": 5.38
  },
  {
    "SMILES": "CC[C@]1(CO)O[C@@H](n2cnc3c(N)nc(N)nc32)C[C@@H]1O",
    "pIC50": 5.49
  },
  {
    "SMILES": "C#C[C@]1(CO)O[C@@H](n2cc(F)c(=O)[nH]c2=O)C[C@@H]1O",
    "pIC50": "< 4.30"
  }
]

Ask: Report pIC50 for C[C@]1(CO)O[C@@H](n2ccc(N)nc2=O)C[C@@H]1O please.
Result: 5.98

Ask: Report pIC50 for CC[C@]1(CO)O[C@@H](n2ccc(N)nc2=O)C[C@@H]1O please.
Result: < 4.30

Ask: Report pIC50 for C#C[C@]1(CO)O[C@@H](n2ccc(N)nc2=O)C[C@@H]1O please.
Result: < 4.30

Ask: Report pIC50 for C#C[C@]1(CO)O[C@@H](n2cnc3c(=O)[nH]c(N)nc32)C[C@@H]1O please.
Result: < 4.30

Ask: Report pIC50 for C#C[C@]1(CO)O[C@@H](n2cc(F)c(N)nc2=O)C[C@@H]1O please.
Result: < 4.30

---

# System: COV434
# TEST PROTOCOL: Cell proliferation CellTiterGlo Ex.2
# Type: cell-based
# COND: COV434 (Ovary), 72 h
PROPERTY: pIC50
Please treat pIC50 as minus the base-10 logarithm of the molar concentration.

Ask: Report pIC50 for C#C[C@]1(CO)O[C@@H](n2cnc3c(=O)[nH]c(N)nc32)C[C@@H]1O [compound 13] please.
Result: 5.36

---

# System: cancer cell lines
# TEST PROTOCOL: Cancer cell proliferation activity of representative nucleosides, CellTiterGlo 72 h (Example 7, Tables 8 and 9)
# Type: cell-based
# COND: Homo sapiens, OVCAR-3, 72 h, OVCAR3, ovary, 72 h
PROPERTY: pIC50
Please treat pIC50 as minus the base-10 logarithm of the molar concentration.

Known pIC50 results, listed for orientation:
[
  {
    "COMPOUND": "CC[C@]1(CO)O[C@@H](n2cnc3c(N)nc(N)nc32)C[C@@H]1O [compound 25]",
    "ASSAY SYSTEM": "cancer cell lines",
    "VALUE MEASURED": 5.74
  },
  {
    "COMPOUND": "C#C[C@]1(CO)O[C@@H](n2cnc3c(=O)[nH]c(N)nc32)C[C@@H]1O [compound 13]",
    "ASSAY SYSTEM": "cancer cell lines",
    "VALUE MEASURED": 6.12
  }
]

Ask: Report pIC50 for N#C[C@]1(CO)O[C@@H](n2ccc(N)nc2=O)C[C@@H]1O [compound 29] please.
Result: 6.24
